Experiment: Fecal excretion study in rats after oral NS, SF or CNS (LC–MS/MS)
Format: in vivo
Conditions: rat feces, oral CNS 110 mg/kg, 24 h
readout_label: Accumulative excretion percentage (%)
Answers are plain numbers, in %.

// Accumulative excretion percentage lookup, key: CC(C)=CCC[C@](C)(O[C@@H]1O[C@H](CO)[C@@H](O)[C@H](O)[C@H]1O)[C@H]1CC[C@]2(C)[C@@H]1[C@H](O)C[C@@H]1[C@@]3(C)CC[C@H](O)C(C)(C)[C@@H]3[C@@H](O[C@@H]3O[C@H](CO)[C@@H](O)[C@H](O)[C@H]3O[C@@H]3O[C@@H](C)[C@H](O)[C@@H](O)[C@H]3O)C[C@]12C [ginsenoside Re]
3.203

----------
Field: concentration at 24 h. Provide a value for each of the compounds that follow.
Test: Urinary excretion study in rats after oral NS, SF or CNS (LC–MS/MS)
Assay type: in vivo
Details: male, Sprague Dawley, rat, urine, oral, oral CNS 110 mg/kg, 24 h
Answers are plain numbers, in ng/mL.

// solved cases for concentration at 24 h follow
// concentration at 24 h lookup, key: CC(C)=CCC[C@](C)(O[C@@H]1O[C@H](CO[C@@H]2O[C@H](CO)[C@@H](O)[C@H](O)[C@H]2O)[C@@H](O)[C@H](O)[C@H]1O)[C@H]1CC[C@]2(C)[C@@H]1[C@H](O)C[C@@H]1[C@@]3(C)CC[C@H](O[C@@H]4O[C@H](CO)[C@@H](O)[C@H](O)[C@H]4O[C@@H]4O[C@H](CO)[C@@H](O)[C@H](O)[C@H]4O)C(C)(C)[C@@H]3CC[C@]12C [ginsenoside Rb1]
72

// concentration at 24 h lookup, key: CC(C)=CCC[C@](C)(O[C@@H]1O[C@H](CO)[C@@H](O)[C@H](O)[C@H]1O)[C@H]1CC[C@]2(C)[C@@H]1[C@H](O)C[C@@H]1[C@@]3(C)CC[C@H](O[C@@H]4O[C@H](CO)[C@@H](O)[C@H](O)[C@H]4O[C@@H]4O[C@H](CO)[C@@H](O)[C@H](O)[C@H]4O)C(C)(C)[C@@H]3CC[C@]12C [ginsenoside Rd]
315

Give measured concentration at 24 h for every item shown.
1. CC(C)=CCC[C@](C)(O[C@@H]1O[C@H](CO)[C@@H](O)[C@H](O)[C@H]1O)[C@H]1CC[C@]2(C)[C@@H]1[C@H](O)C[C@@H]1[C@@]3(C)CC[C@H](O)C(C)(C)[C@@H]3[C@@H](O[C@@H]3O[C@H](CO)[C@@H](O)[C@H](O)[C@H]3O)C[C@]12C [ginsenoside Rg1]
2. CC(C)=CCC[C@](C)(O[C@@H]1O[C@H](CO)[C@@H](O)[C@H](O)[C@H]1O)[C@H]1CC[C@]2(C)[C@@H]1[C@H](O)C[C@@H]1[C@@]3(C)CC[C@H](O)C(C)(C)[C@@H]3[C@@H](O[C@@H]3O[C@H](CO)[C@@H](O)[C@H](O)[C@H]3O[C@@H]3O[C@@H](C)[C@H](O)[C@@H](O)[C@H]3O)C[C@]12C [ginsenoside Re]

2350
369

----------
Test: Urinary excretion study in rats after oral NS, SF or CNS (LC–MS/MS)
Assay type: in vivo
Conditions: rat urine, oral NS 60 mg/kg, 12 h
readout_label: Excretion amount (µg)
One number for each entry, in µg.

// Excretion amount lookup, key: CC(C)=CCC[C@](C)(O[C@@H]1O[C@H](CO)[C@@H](O)[C@H](O)[C@H]1O)[C@H]1CC[C@]2(C)[C@@H]1[C@H](O)C[C@@H]1[C@@]3(C)CC[C@H](O[C@@H]4O[C@H](CO)[C@@H](O)[C@H](O)[C@H]4O[C@@H]4O[C@H](CO)[C@@H](O)[C@H](O)[C@H]4O)C(C)(C)[C@@H]3CC[C@]12C [ginsenoside Rd]
0.076

// Excretion amount lookup, key: CC(C)=CCC[C@](C)(O[C@@H]1O[C@H](CO[C@@H]2O[C@H](CO)[C@@H](O)[C@H](O)[C@H]2O)[C@@H](O)[C@H](O)[C@H]1O)[C@H]1CC[C@]2(C)[C@@H]1[C@H](O)C[C@@H]1[C@@]3(C)CC[C@H](O[C@@H]4O[C@H](CO)[C@@H](O)[C@H](O)[C@H]4O[C@@H]4O[C@H](CO)[C@@H](O)[C@H](O)[C@H]4O)C(C)(C)[C@@H]3CC[C@]12C [ginsenoside Rb1]
0.276

Now turn to the next molecule.
// Excretion amount lookup, key: CC(C)=CCC[C@](C)(O[C@@H]1O[C@H](CO)[C@@H](O)[C@H](O)[C@H]1O)[C@H]1CC[C@]2(C)[C@@H]1[C@H](O)C[C@@H]1[C@@]3(C)CC[C@H](O)C(C)(C)[C@@H]3[C@@H](O[C@@H]3O[C@H](CO)[C@@H](O)[C@H](O)[C@H]3O[C@@H]3O[C@@H](C)[C@H](O)[C@@H](O)[C@H]3O)C[C@]12C [ginsenoside Re]
0.096
